Study system: Cathepsin S (Homo sapiens, UniProt P25774)
Sequence (P25774 115-331, species assumed): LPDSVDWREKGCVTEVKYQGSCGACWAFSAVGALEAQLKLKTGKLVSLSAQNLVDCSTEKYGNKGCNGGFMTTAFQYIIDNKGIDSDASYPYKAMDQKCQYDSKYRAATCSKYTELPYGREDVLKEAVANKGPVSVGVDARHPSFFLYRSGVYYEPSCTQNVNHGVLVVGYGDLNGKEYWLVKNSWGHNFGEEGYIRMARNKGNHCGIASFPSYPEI
Test details: Cathepsin S inhibition, fluorogenic peptide substrate kinetic assay
Format: biochemical
Settings: Table II; Cathepsin S inhibition constant, pH5.5; read-out: Ki Cat. S
Property: Ki

Some entries whose results are on file:
{"Compound": "C[C@@H](CNc1ccc(OC(F)(F)F)cc1)NC(=O)[C@H](CC1CCCCC1)NC(=O)OC1CCS(=O)(=O)CC1 [Compound 186]", "Ki": "< 100 nM"}
{"Compound": "COc1cccc(C(=O)NC(C(=O)N[C@@H](COCc2ccccc2)CN2CCc3cc(F)ccc32)c2ccccc2)c1 (mixture of isomers) [Compound 36]", "Ki": "< 100 nM"}
{"Compound": "O=C(N[C@@H](CC1CCCCC1)C(=O)NCCN1CCc2cc(F)ccc21)C1CCN(c2ccc(Cl)nn2)CC1 [Compound 56]", "Ki": "< 1000 nM"}
{"Compound": "COc1ccc(S(=O)(=O)N2CCC(C(=O)N[C@@H](CC3CCCCC3)C(=O)NCCN3CCc4cc(F)ccc43)CC2)cc1 [Compound 57]", "Ki": "< 1000 nM"}
{"Compound": "Cc1cccc(C(=O)N[C@@H](CC(C)C)C(=O)N[C@@H](CCC(N)=O)CN2CCc3cc(F)ccc32)c1 [Compound 44]", "Ki": "< 100 nM"}

What measured Ki goes with COc1ccc(-c2ccc(S(=O)(=O)N[C@@H](CC3CCCCC3)C(=O)NCCN3CCc4cc(F)ccc43)cc2)cc1 [Compound 238] ?
< 100 nM

Name the recorded Ki for COc1cccc(C(=O)N[C@@H](CC2CCCCC2)C(=O)N[C@@H](CC(=O)O)CN2CCc3cc(F)ccc32)c1 [Compound 162] .
< 100 nM

* * *

// endpoint Ki / system Cathepsin B (Homo sapiens)

Record excerpt, results attached:
{"Mol": "Cn1nc(C(F)(F)F)cc1-c1ccc(S(=O)(=O)N[C@@H](CC2CCCCC2)C(=O)NCCN2CCc3cc(F)ccc32)s1", "Study system": "Cathepsin B (Homo sapiens)", "Value": "> 10 µM"}
{"Mol": "C[C@@H](CNc1ccccc1C(N)=O)NC(=O)[C@H](CC1CCCCC1)NC(=O)c1ccc(-c2cccc(F)c2)o1", "Study system": "Cathepsin B (Homo sapiens)", "Value": "< 10 µM"}

For the next question, use this compound.
Recorded Ki for C[C@@H](CNc1ccc(OC(F)(F)F)cc1)NC(=O)[C@H](CC1CCCC1)NC(=O)O[C@@H]1CCOC1 , please?
> 10 µM

* * *

Study system: UniProt:P25774
Test details: Cathepsin S inhibition, fluorogenic peptide substrate kinetic assay
Type: biochemical
Settings: Table II; Cathepsin S inhibition constant, pH5.5; read-out: Ki Cat. S
pKi: −log10 of the molar value.
Property: pKi; scope: individual molecules

For orientation, consider the following solved cases.
{"Molecule": "C[C@@H](CN1c2ccc(F)cc2CC1(C)C)NC(=O)[C@H](CC1CCCCC1)NC(=O)C1CCOC1 (some centres unmarked)", "Study system": "UniProt:P25774", "Value": "> 7.00"}
{"Molecule": "C[C@@H](CNc1ccc(S(=O)(=O)N2CCOCC2)cc1)NC(=O)[C@H](CC1CCCCC1)NC(=O)c1ccc(-c2cccc(F)c2)o1", "Study system": "UniProt:P25774", "Value": "> 6.00"}
{"Molecule": "C[C@@H](CNc1ccc(OC(F)(F)F)cc1)NC(=O)[C@H](CC1CCCCC1)NC(=O)O[C@H]1CCOC1", "Study system": "UniProt:P25774", "Value": "> 7.00"}
{"Molecule": "COc1ccc(N[C@@H]2CCCC[C@H]2NC(=O)[C@H](CC(C)C)NC(=O)c2cccc(C)c2)cc1 (mixture of isomers)", "Study system": "UniProt:P25774", "Value": "> 6.00"}
{"Molecule": "O=C(N[C@@H](Cc1ccccc1)C(=O)NCCN1CCc2cc(F)ccc21)c1ccc(-c2cccc(C(F)(F)F)c2)o1", "Study system": "UniProt:P25774", "Value": "> 6.00"}

Query molecule follows.
Suppose we examine the molecule C[C@@H](CNc1ccc(OC(F)(F)F)cc1)NC(=O)[C@H](CC1CCCCC1)NC(=O)[C@@H]1CCCO1 ; what pKi value has been reported?
> 7.00

* * *

Study system: Cathepsin S (Homo sapiens, UniProt P25774)
Test details: Cathepsin S inhibition, fluorogenic peptide substrate kinetic assay
Assay type: biochemical
Settings: Table II; Cathepsin S inhibition constant, pH5.5; read-out: Ki Cat. S
Property: Ki

{"Compound": "COC(=O)c1cccc(NC[C@H](C)NC(=O)[C@H](CC2CCCCC2)NC(=O)c2ccc(-c3cccc(F)c3)o2)c1", "Ki": "< 1000 nM"}
{"Compound": "COc1ccc(N2CCC[C@@H](NC(=O)[C@H](CC(C)C)NC(=O)c3cccc(C)c3)C2)cc1 (single isomer, unassigned)", "Ki": "< 10000 nM"}
{"Compound": "Cc1cccc(C(=O)N[C@@H](CC(C)C)C(=O)N[C@@H](CCC(=O)OCc2ccccc2)CN2CCc3cc(F)ccc32)c1", "Ki": "< 100 nM"}
{"Compound": "C[C@@H](CNc1ccc(OC(F)F)cc1)NC(=O)[C@H](CC(C)(C)C)NC(=O)c1ccc(-c2cccc(F)c2)o1", "Ki": "< 100 nM"}

Look up Ki: CS(=O)(=O)Nc1ccc(C(=O)N[C@@H](CC2CCCCC2)C(=O)NCCN2CCc3cc(F)ccc32)cc1
< 100 nM

Endpoint output: Ki of COCC(=O)N[C@@H](CC1CCCCC1)C(=O)N[C@@H](C)CNc1ccc(OC(F)(F)F)cc1 . Value?
< 100 nM

Please look up its Ki: COc1ccc(NCC(C)NC(=O)C(CC2CCCCC2)NC(=O)c2cccc(OC)c2)cc1 (stereo not shown)
< 100 nM

Query (compound): C[C@@H](CNc1ccc(OC(F)(F)F)cc1)NC(=O)[C@H](CC(C)(C)C)NC(=O)[C@H]1CCCO1 ; field requested: Ki
< 10000 nM

Which Ki reading was recorded for the compound C[C@@H](CNc1ccc(OC(F)(F)F)cc1)NC(=O)[C@H](CC1CCCCC1)NC(=O)c1nc(-c2ccc(F)cc2)no1 ?
< 100 nM

What value of Ki has been recorded for this entry: C[C@@H](CNc1cc(Cl)ccc1F)NC(=O)[C@H](CC1CCCCC1)NC(=O)c1ccc(-c2cccc(F)c2)o1
< 1000 nM

Fill in the blank: the reported Ki of COc1ccc(NC[C@H](C)NC(=O)[C@H](CC(C)(C)C)NC(=O)c2ccc(-c3cccc(F)c3)o2)cc1 is ____.
< 100 nM

Value lookup for Ki; key = O=C(N[C@@H](CC1CCCCC1)C(=O)N[C@@H](COCc1ccccc1)CN1CCc2cc(F)ccc21)c1ccc(-c2cccc(C(F)(F)F)c2)o1
< 100 nM

Can you share its Ki? I mean this compound: O=C(NC(C(=O)NC(CO)CN1CCc2cc(F)ccc21)c1ccc(Cl)cc1Cl)c1ccco1 (stereo not shown) [Compound 209]
< 100 nM

* * *

Study system: Cathepsin S (Homo sapiens, UniProt P25774)
Test details: Cathepsin S inhibition, fluorogenic peptide substrate kinetic assay
Format: biochemical
Settings: Table II; Cathepsin S inhibition constant, pH5.5; read-out: Ki Cat. S
Property: Ki

Example entries begin here.
{"Compound": "C[C@@H](CNc1cccc(-c2nnn[nH]2)c1)NC(=O)[C@H](CC1CCCCC1)NC(=O)OCc1ccccc1 [Compound 180]", "Study system": "Cathepsin S (Homo sapiens, UniProt P25774)", "Property": "Ki", "Value": "< 1000 nM"}
{"Compound": "C[C@@H](C(=O)N[C@@H](CC1CCCCC1)C(=O)NCCN1CCc2cc(F)ccc21)c1ccccc1 [Compound 70]", "Study system": "Cathepsin S (Homo sapiens, UniProt P25774)", "Property": "Ki", "Value": "< 100 nM"}
{"Compound": "COc1cccc(C(=O)N[C@@H](CCC2CCCCC2)C(=O)NCCN2CCc3cccc(OC)c32)c1 [Compound 8]", "Study system": "Cathepsin S (Homo sapiens, UniProt P25774)", "Property": "Ki", "Value": "< 10000 nM"}
{"Compound": "Cc1cccc(S(=O)(=O)N[C@@H](CC(C)(C)C)C(=O)N[C@@H](C)CN2CCc3cc(F)ccc32)c1 [Compound 265]", "Study system": "Cathepsin S (Homo sapiens, UniProt P25774)", "Property": "Ki", "Value": "< 100 nM"}
{"Compound": "Cc1cc(NC[C@H](C)NC(=O)[C@H](CC2CCCCC2)NC(=O)c2ccc(-c3cccc(F)c3)o2)on1 [Compound 247]", "Study system": "Cathepsin S (Homo sapiens, UniProt P25774)", "Property": "Ki", "Value": "< 1000 nM"}
{"Compound": "C[C@@H](CNc1ccc(OC(F)(F)F)cc1)NC(=O)[C@H](CC1CCCCC1)NC(=O)O[C@@H]1CCN(C(=O)OC(C)(C)C)C1 [Compound 185]", "Study system": "Cathepsin S (Homo sapiens, UniProt P25774)", "Property": "Ki", "Value": "< 1000 nM"}
{"Compound": "C[C@@H](CNc1cccc(S(C)(=O)=O)c1)NC(=O)[C@H](CC(C)(C)C)NC(=O)c1ccc(-c2cccc(F)c2)o1 [Compound 130]", "Study system": "Cathepsin S (Homo sapiens, UniProt P25774)", "Property": "Ki", "Value": "< 100 nM"}
{"Compound": "Cc1cccc(C(=O)N[C@@H](Cc2cccc(Cl)c2)C(=O)NCCN2CCc3cc(F)ccc32)c1 [Compound 197]", "Study system": "Cathepsin S (Homo sapiens, UniProt P25774)", "Property": "Ki", "Value": "< 1000 nM"}
{"Compound": "C[C@@H](CN1CC(C)(C)c2cc(F)ccc21)NC(=O)[C@H](CC1CCCCC1)NC(=O)O[C@H]1CCOC1 [Compound 217]", "Study system": "Cathepsin S (Homo sapiens, UniProt P25774)", "Property": "Ki", "Value": "< 100 nM"}
{"Compound": "Cc1cccc(S(=O)(=O)N[C@@H](CC2CCCCC2)C(=O)N[C@@H](C)CN2CCc3cc(F)ccc32)c1 [Compound 251]", "Study system": "Cathepsin S (Homo sapiens, UniProt P25774)", "Property": "Ki", "Value": "< 100 nM"}

Value lookup for Ki; key = C[C@@H](CNc1ccc(OC(F)(F)F)cc1)NC(=O)[C@H](CC1CCCCC1)NC(=O)c1cnn(-c2ccc(F)cc2)c1 [Compound 142]
< 100 nM

Would you mind telling me what Ki value was observed for Cc1cccc(C(=O)NC(C(=O)NCCN2CCc3cc(F)ccc32)c2ccc(Cl)cc2Cl)c1 (racemic) [Compound 213] ?
< 1000 nM

Report Ki for O=C(N[C@@H](CC1CCCCC1)C(=O)NCCN1CCc2cc(F)ccc21)c1ccc(Oc2ccccc2)cc1 [Compound 4] please.
< 100 nM

Dear colleague, I am looking for the recorded Ki of the following compound: COc1ccc(NC[C@H](C)NC(=O)[C@H](CC2CCCCC2)NC(=O)c2ccc(-c3ccc(F)cc3)o2)cc1 [Compound 105]
< 100 nM
